subject-of-test: Glutamate receptor ionotropic, kainate 2 (Homo sapiens)
Sequence (Q13002 whole entry): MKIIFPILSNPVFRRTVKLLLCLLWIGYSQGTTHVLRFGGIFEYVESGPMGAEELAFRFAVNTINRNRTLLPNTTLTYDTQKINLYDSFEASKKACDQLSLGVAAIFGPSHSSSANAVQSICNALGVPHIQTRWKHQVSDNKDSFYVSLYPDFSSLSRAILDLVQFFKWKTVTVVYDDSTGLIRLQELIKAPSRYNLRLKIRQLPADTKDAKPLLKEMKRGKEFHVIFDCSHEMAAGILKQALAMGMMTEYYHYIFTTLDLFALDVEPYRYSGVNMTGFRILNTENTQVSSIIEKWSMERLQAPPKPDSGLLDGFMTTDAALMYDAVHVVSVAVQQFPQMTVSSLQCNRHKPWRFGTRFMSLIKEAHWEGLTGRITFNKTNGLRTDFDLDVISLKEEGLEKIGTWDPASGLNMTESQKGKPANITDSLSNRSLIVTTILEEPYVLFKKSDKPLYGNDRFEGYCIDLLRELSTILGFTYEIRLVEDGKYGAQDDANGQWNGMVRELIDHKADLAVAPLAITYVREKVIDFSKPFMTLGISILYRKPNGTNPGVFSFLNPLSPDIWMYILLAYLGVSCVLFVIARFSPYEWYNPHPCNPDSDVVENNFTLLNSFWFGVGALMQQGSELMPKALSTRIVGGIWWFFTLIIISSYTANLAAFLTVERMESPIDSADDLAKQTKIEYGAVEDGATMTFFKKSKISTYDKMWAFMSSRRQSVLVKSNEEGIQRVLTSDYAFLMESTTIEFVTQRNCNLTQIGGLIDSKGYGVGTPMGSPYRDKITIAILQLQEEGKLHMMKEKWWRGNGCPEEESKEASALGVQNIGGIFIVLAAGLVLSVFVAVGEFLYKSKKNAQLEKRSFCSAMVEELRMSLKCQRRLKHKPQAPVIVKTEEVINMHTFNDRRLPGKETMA
protocol-details: Antagonist activity at human recombinant GluK2 receptor expressed in human HEK293 cells assessed as inhibition of glutamate-stimulated calcium influx by fluorescence assay
property-measured: IC50

O=C(O)[C@H]1NCCN(C(=O)c2ccc3cc(I)c4ccccc4c3c2)[C@H]1C(=O)O (relative stereo) :: > 100 µM

---

subject-of-test: Glutamate NMDA receptor; Grin1/Grin2a (Rattus norvegicus, UniProt P35439+Q00959)
Sequence (Q00959 whole entry, other chains not shown): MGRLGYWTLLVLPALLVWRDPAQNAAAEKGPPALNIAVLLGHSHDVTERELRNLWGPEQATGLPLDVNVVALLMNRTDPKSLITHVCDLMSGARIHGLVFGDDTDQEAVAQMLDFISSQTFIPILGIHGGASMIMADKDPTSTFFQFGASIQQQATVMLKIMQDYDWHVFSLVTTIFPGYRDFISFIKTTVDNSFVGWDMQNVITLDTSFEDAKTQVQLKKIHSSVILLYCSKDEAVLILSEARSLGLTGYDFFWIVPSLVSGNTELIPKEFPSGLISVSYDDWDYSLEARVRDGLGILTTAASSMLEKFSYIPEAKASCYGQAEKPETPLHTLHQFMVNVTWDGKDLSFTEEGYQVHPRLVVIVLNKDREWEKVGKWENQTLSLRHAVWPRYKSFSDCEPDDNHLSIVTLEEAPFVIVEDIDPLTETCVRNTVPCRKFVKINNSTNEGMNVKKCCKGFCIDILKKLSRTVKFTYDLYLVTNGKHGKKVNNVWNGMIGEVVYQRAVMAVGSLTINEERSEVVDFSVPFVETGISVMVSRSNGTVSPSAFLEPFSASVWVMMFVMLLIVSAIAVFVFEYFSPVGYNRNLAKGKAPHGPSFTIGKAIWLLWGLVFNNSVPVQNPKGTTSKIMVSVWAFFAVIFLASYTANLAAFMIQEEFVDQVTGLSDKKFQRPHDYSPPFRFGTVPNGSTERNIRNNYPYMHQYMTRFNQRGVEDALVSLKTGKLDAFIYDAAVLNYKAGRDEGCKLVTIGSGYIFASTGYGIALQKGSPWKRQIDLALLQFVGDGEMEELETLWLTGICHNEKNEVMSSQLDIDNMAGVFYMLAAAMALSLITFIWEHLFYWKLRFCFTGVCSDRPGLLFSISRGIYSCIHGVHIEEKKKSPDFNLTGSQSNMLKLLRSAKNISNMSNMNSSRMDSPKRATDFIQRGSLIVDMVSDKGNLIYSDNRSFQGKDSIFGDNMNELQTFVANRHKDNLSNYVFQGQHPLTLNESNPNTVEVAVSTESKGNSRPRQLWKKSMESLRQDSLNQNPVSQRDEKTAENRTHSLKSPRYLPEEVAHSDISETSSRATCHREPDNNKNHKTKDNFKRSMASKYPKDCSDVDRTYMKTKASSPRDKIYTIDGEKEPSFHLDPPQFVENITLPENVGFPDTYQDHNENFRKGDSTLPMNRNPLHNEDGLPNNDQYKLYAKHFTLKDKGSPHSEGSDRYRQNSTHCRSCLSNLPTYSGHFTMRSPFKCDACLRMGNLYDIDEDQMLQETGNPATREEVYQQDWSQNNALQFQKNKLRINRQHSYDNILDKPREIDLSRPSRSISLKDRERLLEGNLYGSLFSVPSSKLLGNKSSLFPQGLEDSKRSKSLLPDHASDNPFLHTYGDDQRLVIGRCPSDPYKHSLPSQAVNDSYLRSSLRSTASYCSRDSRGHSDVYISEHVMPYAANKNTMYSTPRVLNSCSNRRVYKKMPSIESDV
protocol-details: Antagonist activity at rat recombinant GluN1/GluN2A receptor expressed in Xenopus laevis oocytes assessed as inhibition of glutamate-induced response by two-electrode voltage-clamp electrophysiology assay
experimental-parameters: read-out: Ki(app)
pKi: −log10 of the molar value.
Classification field: enter Yes for pKi values not below 5, No for values below it.

O=C(O)[C@H]1NCCN(C(=O)c2ccc(/N=N/c3ccccc3)cc2)[C@H]1C(=O)O (relative stereo) :: No
O=C(O)[C@H]1NCCN(C(=O)c2ccc3cc(I)ccc3c2)[C@H]1C(=O)O (relative stereo) :: Yes
O=C(O)[C@H]1NCCN(C(=O)c2ccc3cc(-c4ccccc4)ccc3c2)[C@H]1C(=O)O (relative stereo) :: No
O=C(O)[C@H]1NCCN(C(=O)c2ccc(C#Cc3ccccc3)cc2)[C@H]1C(=O)O (relative stereo) :: No
O=C(O)[C@H]1NCCN(C(=O)CCc2ccc3ccccc3c2)[C@H]1C(=O)O (relative stereo) :: Yes
O=C(O)[C@H]1NCCN(C(=O)c2ccc3ccc4ccccc4c3c2)[C@H]1C(=O)O :: No
O=C(O)[C@@H]1[C@H](C(=O)O)NCCN1C(=O)c1ccc2c(ccc3ccccc32)c1 :: Yes
O=C(O)c1ccc2cc(C(=O)N3CCN[C@H](C(=O)O)[C@@H]3C(=O)O)ccc2c1 (relative stereo) :: No
O=C(O)[C@H]1NCCN(C(=O)c2ccc3cc(Br)ccc3c2)[C@H]1C(=O)O (relative stereo) :: Yes
O=C(O)C1NCCN(C(=O)c2ccc3c(ccc4ccccc43)c2)C1C(=O)O (racemic) :: Yes
O=C(O)[C@H]1NCCN(C(=O)c2ccc(CCc3ccccc3)cc2)[C@H]1C(=O)O (relative stereo) :: No

---

subject-of-test: Glutamate NMDA receptor; Grin1/Grin2c (Rattus norvegicus, UniProt P35439+Q00961)
Sequence (Q00961 whole entry, other chains not shown): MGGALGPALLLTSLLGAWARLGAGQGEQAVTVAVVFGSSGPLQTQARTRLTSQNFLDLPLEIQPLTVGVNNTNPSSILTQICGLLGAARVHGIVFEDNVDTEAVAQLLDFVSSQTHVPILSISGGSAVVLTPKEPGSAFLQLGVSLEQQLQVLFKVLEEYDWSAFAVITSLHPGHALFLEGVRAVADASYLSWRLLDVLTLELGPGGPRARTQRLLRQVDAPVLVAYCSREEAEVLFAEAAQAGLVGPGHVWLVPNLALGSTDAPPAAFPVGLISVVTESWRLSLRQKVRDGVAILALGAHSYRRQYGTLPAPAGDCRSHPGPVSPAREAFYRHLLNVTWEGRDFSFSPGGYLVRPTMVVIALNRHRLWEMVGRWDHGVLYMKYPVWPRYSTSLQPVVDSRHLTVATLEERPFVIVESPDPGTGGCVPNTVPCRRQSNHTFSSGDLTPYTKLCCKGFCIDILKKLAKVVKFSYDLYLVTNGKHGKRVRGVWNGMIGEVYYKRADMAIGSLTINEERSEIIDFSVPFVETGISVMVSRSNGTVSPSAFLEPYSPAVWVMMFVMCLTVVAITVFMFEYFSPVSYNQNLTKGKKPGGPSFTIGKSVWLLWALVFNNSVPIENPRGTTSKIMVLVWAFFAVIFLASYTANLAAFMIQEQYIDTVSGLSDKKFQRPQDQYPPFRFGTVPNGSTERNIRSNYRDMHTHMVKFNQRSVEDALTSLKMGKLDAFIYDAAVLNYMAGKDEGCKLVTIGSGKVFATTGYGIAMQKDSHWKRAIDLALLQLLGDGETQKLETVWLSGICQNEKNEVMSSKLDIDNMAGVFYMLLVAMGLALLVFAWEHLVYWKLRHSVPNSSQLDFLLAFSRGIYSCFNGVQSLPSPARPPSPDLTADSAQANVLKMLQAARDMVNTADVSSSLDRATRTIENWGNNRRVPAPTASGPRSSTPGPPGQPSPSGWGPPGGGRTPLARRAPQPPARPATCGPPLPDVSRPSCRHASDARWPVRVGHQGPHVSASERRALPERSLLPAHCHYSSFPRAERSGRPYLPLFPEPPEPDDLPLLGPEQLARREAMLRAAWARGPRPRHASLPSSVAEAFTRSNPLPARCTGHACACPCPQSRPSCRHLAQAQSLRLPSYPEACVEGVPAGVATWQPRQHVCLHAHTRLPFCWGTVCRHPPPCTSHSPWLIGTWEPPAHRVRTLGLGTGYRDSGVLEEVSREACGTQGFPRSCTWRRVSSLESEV
protocol-details: Antagonist activity rat recombinant GluN1/GluN2C receptor expressed in Xenopus laevis oocytes assessed as inhibition of glutamate-induced response by two-electrode voltage-clamp electrophysiology assay
experimental-parameters: read-out: Ki(app)
Reported Ki values are given for each entry in this list.
property-measured: Ki

O=C(O)[C@H]1NCCN(C(=O)c2ccc(CCc3ccccc3)cc2)[C@H]1C(=O)O (relative stereo) :: > 100 µM
O=C(O)c1ccc2cc(C(=O)N3CCN[C@H](C(=O)O)[C@@H]3C(=O)O)ccc2c1 (relative stereo) :: > 100 µM
O=C(O)c1ccc(-c2ccc(C(=O)N3CCN[C@H](C(=O)O)[C@@H]3C(=O)O)cc2)cc1 (relative stereo) :: > 100 µM

---

subject-of-test: Glutamate NMDA receptor; Grin1/Grin2b (Rattus norvegicus, UniProt P35439+Q00960)
Sequence (Q00960 whole entry, other chains not shown): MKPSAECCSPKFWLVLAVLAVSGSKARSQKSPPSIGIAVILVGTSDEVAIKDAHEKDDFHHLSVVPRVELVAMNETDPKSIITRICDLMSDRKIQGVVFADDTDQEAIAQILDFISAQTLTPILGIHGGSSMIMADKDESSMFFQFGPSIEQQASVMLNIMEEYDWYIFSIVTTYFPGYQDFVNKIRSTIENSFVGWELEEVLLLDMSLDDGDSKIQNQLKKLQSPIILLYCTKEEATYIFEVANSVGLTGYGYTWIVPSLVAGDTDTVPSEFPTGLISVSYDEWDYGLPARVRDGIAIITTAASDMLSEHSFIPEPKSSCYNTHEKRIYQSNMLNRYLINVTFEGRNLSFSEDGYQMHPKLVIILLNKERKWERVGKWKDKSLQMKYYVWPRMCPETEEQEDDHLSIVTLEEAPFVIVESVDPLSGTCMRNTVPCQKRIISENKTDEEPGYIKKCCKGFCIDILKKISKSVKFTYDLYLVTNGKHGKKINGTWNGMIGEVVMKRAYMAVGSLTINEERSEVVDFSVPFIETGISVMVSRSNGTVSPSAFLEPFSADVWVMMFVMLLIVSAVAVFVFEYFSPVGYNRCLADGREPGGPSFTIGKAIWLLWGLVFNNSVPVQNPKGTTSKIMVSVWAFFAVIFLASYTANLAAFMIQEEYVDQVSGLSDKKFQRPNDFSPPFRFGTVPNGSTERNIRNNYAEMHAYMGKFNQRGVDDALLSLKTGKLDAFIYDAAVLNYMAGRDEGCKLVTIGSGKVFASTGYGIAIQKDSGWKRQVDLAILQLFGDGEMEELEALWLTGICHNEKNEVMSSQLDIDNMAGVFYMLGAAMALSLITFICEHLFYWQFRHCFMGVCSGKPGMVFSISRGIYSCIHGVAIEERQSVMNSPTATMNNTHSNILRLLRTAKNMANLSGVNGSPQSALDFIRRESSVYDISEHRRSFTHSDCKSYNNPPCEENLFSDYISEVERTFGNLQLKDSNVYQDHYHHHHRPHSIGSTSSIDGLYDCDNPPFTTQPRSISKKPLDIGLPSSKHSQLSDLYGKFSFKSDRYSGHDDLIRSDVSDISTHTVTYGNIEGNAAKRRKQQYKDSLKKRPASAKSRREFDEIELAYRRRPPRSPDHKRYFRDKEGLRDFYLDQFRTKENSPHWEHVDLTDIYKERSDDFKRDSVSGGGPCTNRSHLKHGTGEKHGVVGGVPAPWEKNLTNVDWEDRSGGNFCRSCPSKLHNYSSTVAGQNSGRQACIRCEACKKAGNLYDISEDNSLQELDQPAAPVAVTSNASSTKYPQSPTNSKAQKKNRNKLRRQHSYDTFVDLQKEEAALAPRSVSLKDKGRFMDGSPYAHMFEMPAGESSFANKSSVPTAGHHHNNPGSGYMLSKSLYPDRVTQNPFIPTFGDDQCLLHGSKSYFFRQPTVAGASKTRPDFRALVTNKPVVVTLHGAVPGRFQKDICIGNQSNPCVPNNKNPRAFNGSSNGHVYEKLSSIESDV
protocol-details: Antagonist activity rat recombinant GluN1/GluN2B receptor expressed in Xenopus laevis oocytes assessed as inhibition of glutamate-induced response by two-electrode voltage-clamp electrophysiology assay
experimental-parameters: read-out: Ki(app)
property-measured: Ki

O=C(O)[C@H]1NCCN(C(=O)c2ccc(CCc3ccccc3)cc2)[C@H]1C(=O)O (relative stereo) :: > 100 µM
O=C(O)c1ccc(-c2ccc(C(=O)N3CCN[C@H](C(=O)O)[C@@H]3C(=O)O)cc2)cc1 (relative stereo) :: > 100 µM
O=C(O)c1ccc2cc(C(=O)N3CCN[C@H](C(=O)O)[C@@H]3C(=O)O)ccc2c1 (relative stereo) :: > 100 µM

---

# reported pKi; entries follow
subject-of-test: Glutamate NMDA receptor; Grin1/Grin2a (Rattus norvegicus, UniProt P35439+Q00959)
protocol-details: Antagonist activity at rat recombinant GluN1/GluN2A receptor expressed in Xenopus laevis oocytes assessed as inhibition of glutamate-induced response by two-electrode voltage-clamp electrophysiology assay
experimental-parameters: read-out: Ki(app)
pKi: −log10 of the molar value.
property-measured: pKi

O=C(O)[C@H]1NCCN(C(=O)c2ccc3cc(Br)c4ccccc4c3c2)[C@H]1C(=O)O (relative stereo) :: 4.94
O=C(O)[C@H]1NCCN(C(=O)c2ccc3cc(Cl)c4ccccc4c3c2)[C@H]1C(=O)O (relative stereo) :: 5.14
O=C(O)[C@H]1NCCN(C(=O)c2ccc3cc(I)c4ccccc4c3c2)[C@H]1C(=O)O (relative stereo) :: 5.13
O=C(O)[C@H]1NCCN(C(=O)c2ccc3cc4ccccc4cc3c2)[C@H]1C(=O)O (relative stereo) :: 4.98
O=C(O)[C@H]1NCCN(C(=O)c2ccc3cc(F)ccc3c2)[C@H]1C(=O)O (relative stereo) :: 5.13

These measurements were taken from ChEMBL document CHEMBL1949555.
